- System: Schistosoma mansoni
- test: Antischistosomal activity against Schistosoma mansoni NTS incubated for 72 hrs
- Assay type: functional, organism-based
recordedEndpoint: pIC50
// field semantics: pIC50 = negative decimal log of concentration (mol/L)

Some compounds with recorded pIC50:
INSERT INTO measurements (compound, targetdesc, recordedresult) VALUES
  ('C[C@]12OO[C@](C)(OO1)C2CCC(=O)N1CCOCC1 (stereo partly specified)', 'Schistosoma mansoni', 4.97),
  ('CC12CCC3(Cc4ccccc4)[C@@](C)(OO[C@]3(C)O1)O2', 'Schistosoma mansoni', 4.87),
  ('CC12CCC3[C@@](C)(OO[C@]3(c3ccccc3)O1)O2', 'Schistosoma mansoni', 5.03),
  ('CC(C)(C)OOC(C#N)(C#N)C1CCCC1', 'Schistosoma mansoni', 4.97),
  ('C#CCC12CCC3(C)O[C@]1(C)OO[C@]2(C)O3', 'Schistosoma mansoni', 5.09);

# context switch: different compound, same pIC50
### Prompt Give the measured pIC50 of CCOC(=O)CNC(=O)CCC1[C@]2(C)OO[C@@]1(C)OO2 (stereo partly specified) .
### Response 4.93
